Assay System: α/β TCR/CD3 complex on Jurkat, Clone E6-1 cells (human) (UniProt P07766)
Protocol Summary: flow cytometry on Jurkat Clone E6-1 cells, Fab titration 10 µg/ml to 10 ng/ml; EC50 of MFI, fold decrease vs TPP-1374
Entries annotated with measured fold decrease in EC50
Could you give me the number in fold? Just the number is fine.

TPP-1390 Fab fragment (Fab, V domains shown) VH: EVQLVQSGAEVKKPGASVKVSCKASGYKFTSYVMHWVRQAPGQGLEWMGYINPRNDVTKYAEKFQGRVTLTSDTSTSTAYMELSSLRSEDTAVYYCARGSYYDYEGFVYWGQGTLVTVSS VL: QIQMTQSPSSLSASVGDRVTITCSATSSVSYMHWYQQKPGKAPKRWIYDTSKLASGVPSRFSGSGSGTDYTLTISSLQPEDAATYYCQQWSSNPLTFGGGTKVEIKR	5.5

Below: the item to evaluate.
According to the records, this binder TPP-1389 Fab fragment (Fab, V domains shown) VH: EVQLVQSGAEVKKPGASVKVSCKASGYKFTRYVMHWVRQAPGQGLEWMGYINPYNDVTKYAEKFQGRVTLTSDTSTSTAYMELSSLRSEDTAVYYCARGSYYDYEGFVYWGQGTLVTVSS VL: QIQMTQSPSSLSASVGDRVTITCSATSSVSYMHWYQQKPGKAPKRWIYDTSKLARGVPSRFSGSGSGTDYTLTISSLQPEDAATYYCQQWSSNPLTFGGGTKVEIKR displays fold decrease in EC50 of 31.8
